Test system: NCI-H522 lung
assay_procedure: NCI tumour cell line growth inhibition, 48 h
Answer each item with its documented TGI.
Numbers only, in µM.

Some compounds with known TGI results, for comparison:
Given CCN1CCN(c2ccc(Nc3cc(N(C)C(=O)Nc4c(Cl)c(OC)cc(OC)c4Cl)ncn3)cc2)CC1 , state its recorded TGI.
10.9

Query: TGI; subject: CCCCN(CCCC)CC(C(=O)Nc1ccc([N+](=O)[O-])cc1[N+](=O)[O-])/C(C)=N\NC(=S)NN (configuration not stated)
65.4

Given the entry CC1=Nc2ccccc2C1C(Cc1ccccc1N)c1c(C)[nH]c2ccccc12 (configuration not stated) , report its measured TGI.
31.6

What measured TGI goes with O=[N+]([O-])c1ccc(/C=N/n2c(CO)nc3ccccc32)o1 ?
4.43

Need TGI, item CCC[CH2][Sn]([CH2]CCC)([CH2]CCC)[O]C(=O)CC
0.299

For each of the compounds below, note its TGI.
1. COc1ccc(C(=O)c2cc(OC)c(C)c(OC)c2)cc1OC(=O)CCl
2. O=[N+]([O-])c1cc2oc(COc3ccccc3)nc2cc1Cl
3. CCn1c(-c2cc(OC)cc(OC)c2)nc2c1C(=O)c1ccccc1C2=O
4. COC(=O)c1cc2c(cc1O)[C@@H](NC(C)=O)CCc1cc(OC)c(OC)c(OC)c1-2
5. CCOC(=O)/C=C/C(C(=O)/C=C/c1ccc(OC2CCCCO2)c(OC)c1)=C(O)\C=C\c1ccc(OC2CCCCO2)c(OC)c1 (configuration not stated)
6. CCc1nc(N)nc(N)c1-c1ccc2nn(-c3ccccc3)[n+]([O-])c2c1
7. CC(=O)OC1Oc2ccccc2-c2oc(=O)c(-c3cc(=O)oc4cc(O)ccc34)cc21 (configuration not stated)

1. 14.1
2. 46.3
3. 87.9
4. 0.19
5. 6.68
6. 11.6
7. 43

Working through the 7 compounds below one at a time, give TGI for each.
1. Cc1c2cccnc2c(C)c2c1c1cc(CO)ccc1n2C
2. Cc1ccc(C(SCC(N)C(=O)O)(c2ccccc2)c2ccc(C)cc2)cc1 (configuration not stated)
3. CC1=C(C#N)C(C#N)(C#N)C(NN(C)C)C1 (configuration not stated)
4. COc1ccc(OC)c(NC(=O)C(=O)NNC(=O)c2sc(NNC(C)=O)nc2C)c1
5. COc1cc(C2c3cc4c(cc3OC(N3CCCC3)C2C)OCO4)cc(OC)c1O (configuration not stated)
6. CN(C)Cc1cc(C(=O)/C=C/c2ccc(Cl)cc2)cc(CN(C)C)c1O
7. O=S(=O)(Nc1cc(F)cc(Cl)c1)c1ccc(-c2cnc(C3CC3)o2)cc1

1: 6.53; 2: 2.58; 3: 24.8; 4: 44.3; 5: 19.1; 6: 10.8; 7: 16.5
